targetOrTestSystem: Wistar rat heart PBR (Rattus norvegicus, UniProt P16257)
Construct: PK-11195; from tissue; host or cells: Wistar rat heart
methodNotes: In vitro potency assay (competition binding against [3H]PK-11195)
conditionInfo: read-out: Ki
Listed here are compounds together with their documented Ki.

{"columns": ["compound", "unitString", "Ki"],
 "data": [
  ["CC(=O)N(Cc1cccnc1OCCF)c1ccccc1Oc1ccccc1 [Non-radioactive imaging agent 19]", "nM", 1.02],
  ["CC(=O)N(Cc1ccccc1OCCF)c1cccnc1Oc1ccccc1 [Non-radioactive imaging agent 1]", "nM", 4.24]
]}

###

targetOrTestSystem: Wistar rat heart PBR (Rattus norvegicus, UniProt P16257)
Construct: PK-11195; from tissue; host or cells: Wistar rat heart
methodNotes: In vitro potency assay (competition binding against [3H]PK-11195)
measurementLabel: Ki (nM)

{"columns": ["recordSmiles", "recordedNumber"],
 "data": [
  ["COc1ncccc1CN(C(=O)CF)c1ccccc1Oc1ccccc1", 3.77]
]}
